From: patent US12630553B2

Assay: Stability test of salts of compound 1 (HPLC, XRD)
Format: physicochemical
Conditions: Initial sample, day 0
Where a name gives a salt, the structure may show the parent alone.
Assay metric: XPRD

compound="CN[C@@H](C)C(=O)N[C@H]1CN(S(=O)(=O)c2cccc(S(=O)(=O)N3CC[C@H]4CC[C@@H](C(=O)NC(c5ccccc5)c5ccccc5)N4C(=O)[C@@H](NC(=O)[C@H](C)NC)C3)c2)CC[C@H]2CCC(C(=O)NC(c3ccccc3)c3ccccc3)N2C1=O (stereo partly shown) [Compound 1 di-p-toluenesulfonate amorphous Form XVI]" assay_metric=XPRD result=Amorphous
compound="CN[C@@H](C)C(=O)N[C@H]1CN(S(=O)(=O)c2cccc(S(=O)(=O)N3CC[C@H]4CC[C@@H](C(=O)NC(c5ccccc5)c5ccccc5)N4C(=O)[C@@H](NC(=O)[C@H](C)NC)C3)c2)CC[C@H]2CCC(C(=O)NC(c3ccccc3)c3ccccc3)N2C1=O (stereo partly shown) [compound 1 disulfate amorphous form XXIII]" assay_metric=XPRD result=Amorphous
compound="CN[C@@H](C)C(=O)N[C@H]1CN(S(=O)(=O)c2cccc(S(=O)(=O)N3CC[C@H]4CC[C@@H](C(=O)NC(c5ccccc5)c5ccccc5)N4C(=O)[C@@H](NC(=O)[C@H](C)NC)C3)c2)CC[C@H]2CCC(C(=O)NC(c3ccccc3)c3ccccc3)N2C1=O (stereo partly shown) [compound 1 dihydrochloride amorphous form V]" assay_metric=XPRD result=Amorphous
